The reported measurements were obtained from paper PMC9482650.

Biological target: T1, APBA2_2, Q99767
T1 sequence (Q99767 654-744, limits assumed, looked up): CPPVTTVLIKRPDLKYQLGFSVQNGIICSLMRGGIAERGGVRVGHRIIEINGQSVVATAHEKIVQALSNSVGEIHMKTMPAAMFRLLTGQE
Assay: holdup assay
Set-up: key: below the threshold = too weak to quantify, mostly under pKd 3.1 to 4
Conditions: plain residues with an end cap or a label only (N-terminal biotin on a linker: ado-ado)
measure: pKd

Study these solved cases before continuing.
[Q] # pKd lookup, item FHSIKQSTAV [CRHR1, P34998]
[A] below the threshold

[Q] Bench note: what pKd did QLKSGRDSTV [TMEM178A, Q8NBL3] show?
[A] below the threshold

[Q] Recorded pKd of PLPPEEESWV [GAS2L2, Q8NHY3] , please.
[A] below the threshold

[Q] Which measured pKd value corresponds to ELKAEDEVQI [DCHS2, Q6V1P9] ?
[A] below the threshold

[Q] pKd lookup needed for EPAKETTTNV [SLC2A3, P11169] , thanks.
[A] below the threshold

Further cases:
[Q] Item RSPVATATSC [DUSP5, Q16690] has what recorded pKd?
[A] below the threshold

[Q] I have this binder here, GQNMTVSVVI [PRLHR, P49683] , and I need its recorded pKd.
[A] below the threshold

[Q] Look at this binder and give its reported pKd. GTMFLRETSL [GUCY1A2, P33402]
[A] below the threshold

[Q] What value of pKd has been recorded for this entry: SQPLLVHDDV [KIT, P10721]
[A] below the threshold

[Q] Would you mind telling me what pKd value was observed for SKQFDKNAYV [CLDN10, P78369] ?
[A] below the threshold

[Q] Sample KSRPENGTVC [TMEM178B, H3BS89] — what was its pKd?
[A] below the threshold

[Q] Would you mind telling me what pKd value was observed for NSTHNLKDYV [CLDN20, P56880] ?
[A] below the threshold

[Q] For the binder GSQSQVETEA [FKBP4, Q02790] , what pKd is on record?
[A] below the threshold

[Q] May I ask what pKd has been recorded for ATKDKKITTV [EXOC4, Q96A65] ?
[A] below the threshold

[Q] Query (binder): DFKHTKSFII [JAM2, P57087] ; field requested: pKd
[A] below the threshold
